Each record here notes measured T/C.
# Test system: L1210 leukemia ip in BDF1 mice, survival T/C
# Assay Procedure: NCI In Vivo Anticancer Drug Screen. Data for tumor model L1210 Leukemia (intraperitoneal) in B6D2F1 (BDF1) mice
# Test Context: endpoint: mean survival time; dose: 100.0 mg/kg/injection; schedule: Q01DX001 (ip); vehicle: saline; higher = longer survival
Inconclusive results and toxic doses are left out.

>  <Compound>
COc1ccc(S(=O)(=O)N=[N+]=[N-])cc1

>  <T/C>
103 % of control

$$$$
>  <Compound>
O=C(Nc1ccc(S(=O)(=O)NC2CCCCC2)cc1)OC(c1ccccc1)c1ccccc1

>  <T/C>
96 % of control

$$$$
>  <Compound>
Cc1ccc(C)c(N(c2ccccc2N)S(C)(=O)=O)c1

>  <T/C>
95 % of control

$$$$
>  <Compound>
CCOC(=O)c1c(Cl)nc2ccccc2c1Cl

>  <T/C>
92 % of control

$$$$

# T/C lookup, item CC(=O)Oc1ccc2c(C)cc(=O)oc2c1
100 % of control

# T/C lookup, item COc1ccc(/C=N/O)cc1
93 % of control

# T/C lookup, item CC(=O)Nc1ccc2c(c1)C(N)c1ccccc1-2 (stereo unspecified)
113 % of control

# T/C lookup, item CN(C)CCN=C(Nc1ccccn1)Nc1ccccn1
97 % of control

# T/C lookup, item NC(=O)CS
96 % of control

# T/C lookup, item NNc1ccccc1
105 % of control

# T/C lookup, item CSc1nc(N)nc2c1nnn2C1OC(CO)C(O)C1O (stereo unspecified)
105 % of control

# T/C lookup, item CCCCCc1c(CCCC)c(=O)[nH]c2ccccc12
97 % of control

# T/C lookup, item CC(CO)(CO)N=Cc1ccccc1O.CC(CO)(CO)N=Cc1ccccc1O.[Co]
97 % of control

# T/C lookup, item CC(C)(CCCOc1ccccc1)NC(=O)c1ccccc1
100 % of control

# T/C lookup, item CCCCOB(OCCCC)OCCCC
95 % of control

###

Each record here notes measured T/C.
# System: L1210 leukemia ip in BDF1 mice, survival T/C
# Assay Procedure: NCI In Vivo Anticancer Drug Screen. Data for tumor model L1210 Leukemia (intraperitoneal) in B6D2F1 (BDF1) mice
# Test Context: endpoint: mean survival time; dose: 400.0 mg/kg/injection; schedule: Q01DX009 (ip); vehicle: Klucel (hydroxypropylcellulose) (HPC); higher = longer survival
Toxic doses and inconclusive results are not listed.

>  <Compound>
CCCCCCCCC(=O)NCc1ccco1

>  <Assay Target>
L1210 leukemia ip in BDF1 mice, survival T/C

>  <T/C>
94 % of control

$$$$
>  <Compound>
O=Cc1ccc(OS(=O)(=O)c2ccc([N+](=O)[O-])cc2)cc1

>  <Assay Target>
L1210 leukemia ip in BDF1 mice, survival T/C

>  <T/C>
90 % of control

$$$$
>  <Compound>
CN(Cc1ccccc1)C(=O)Nc1ccc(F)c([N+](=O)[O-])c1

>  <Assay Target>
L1210 leukemia ip in BDF1 mice, survival T/C

>  <T/C>
101 % of control

$$$$
>  <Compound>
Nc1ncc([N+](=O)[O-])cn1

>  <Assay Target>
L1210 leukemia ip in BDF1 mice, survival T/C

>  <T/C>
100 % of control

$$$$
>  <Compound>
Cc1ccnc(NC(=O)Nc2cc(C)ccc2C)c1

>  <Assay Target>
L1210 leukemia ip in BDF1 mice, survival T/C

>  <T/C>
92 % of control

$$$$

# T/C lookup, item C1CC2CC2CCC2CC12 (stereo not drawn)
102 % of control

# T/C lookup, item CCOC1C=CC(OC(C)=O)C(COC(C)=O)O1 (stereo not drawn)
104 % of control

# T/C lookup, item Cc1cc(C)c([N+](=O)[O-])c(N)n1
103 % of control
